biological target: recombinant human TET2 catalytic domain (Homo sapiens); construct: recombinant human TET1 or TET2 catalytic domain; experiment: In vitro TET2 activity assay, LC-MS/MS quantitation; settings: 30 minute incubation, FIG. 3; read-out: IC50, TET2 mediated conversion of 5mC to 5hmC
test_readout: IC50

Enquiry: Need IC50 of Nc1nc(=O)n([C@H]2C[C@H](O)[C@@H](CO)O2)cc1C#CCCN(O)C(=O)CCC(=O)O [Compound 13b] , thanks.
Return: ~1 mM

###

Quick list: lowered the relative levels of 5hmC per entry.
test system: K562 cells; test: 5hmC dot blot in K562 cells treated with inhibitor; assay type: cell-based, human; details: 5 μM compound, 24 hours, genomic DNA dot blot, normalized to DMSO
Write the number in % without appending the unit.

Below are worked cases with known answers.
molecule	unit_of_measure	lowered the relative levels of 5hmC
Nc1nc(=O)n([C@H]2C[C@H](O)[C@@H](CO)O2)cc1C#CCCNC(=O)/C=C/C(=O)O	%	26
Nc1nc(=O)n([C@H]2C[C@H](O)[C@@H](CO)O2)cc1C#CCCN(O)C(=O)/C=C/C(=O)O	%	47

Enquiry: Need lowered the relative levels of 5hmC of Nc1nc(=O)n([C@H]2C[C@H](O)[C@@H](CO)O2)cc1C#CCCN(O)C(=O)CCC(=O)O [Compound 13b] , thanks.
Return: 55

Enquiry: Need lowered the relative levels of 5hmC of COC(=O)/C=C/C(=O)N(O)CCC#Cc1cn([C@H]2C[C@H](O)[C@@H](CO)O2)c(=O)nc1N , thanks.
Return: 30
